test system: MDA-MB-435 melanoma; experiment: NCI tumour cell line growth inhibition, 384-well format
Readout Type: TGI (µM)
One number for each entry, in µM.

{"Smiles Input": "CCN1CCN(Cc2ccc(-c3cc4c(N[C@H](C)c5ccccc5)ncnc4[nH]3)cc2)CC1", "Test Target": "MDA-MB-435 melanoma", "Quantitative Readout": 3.04}

Here is another compound to look at.
Record CN(C)CCOc1ccc(-c2nc(-c3ccc4c(c3)CC/C4=N\O)c(-c3ccncc3)[nH]2)cc1 . Reported TGI: 1.6

====

test system: SK-MEL-28 melanoma; assay: NCI tumour cell line growth inhibition, 384-well format
Readout Type: TGI (nM)
One number for each entry, in nM.

A selection of reference data follows.
{"Smiles Input": "CCN1CCN(Cc2ccc(-c3cc4c(N[C@H](C)c5ccccc5)ncnc4[nH]3)cc2)CC1", "Readout Type": "TGI", "Quantitative Readout": 2940}
{"Smiles Input": "C[C@@H]1COCCN1c1cc(C2([S@](C)(=N)=O)CC2)nc(-c2ccnc3[nH]ccc23)n1", "Readout Type": "TGI", "Quantitative Readout": 81800}

Shift focus to the following entry.
TGI for SK-MEL-28 melanoma with input CN(C)CCOc1ccc(-c2nc(-c3ccc4c(c3)CC/C4=N\O)c(-c3ccncc3)[nH]2)cc1 equals 198

Entry source: PubChem BioAssay (NCI)
